Entry source: PubChem BioAssay (NCI)

Assignment: determine reported TGI for the given compounds.
Tested on: SF-539 CNS
PROTOCOL_SUMMARY: NCI tumour cell line growth inhibition, 48 h
Give the value, in units of µM, as a plain number.

compound CCCCCCCC(CC(=O)NC(CO)C(=O)NC(CO)CC(C)C)OC(=O)CC(CCCCCCC)OC(=O)CC(CCCCCCC)OC1OC(C)C(O)C(OC2OC(C)C(OC(C)=O)C(O)C2O)C1O (configuration not stated) , TGI observed: 23.4

compound COc1cccc2c1C(=N)c1c(O)c3c(c(O)c1C2=O)C[C@@](O)(C(C)=O)C[C@@H]3O[C@H]1C[C@H](N)[C@H](O)[C@H](C)O1 , TGI observed: 1.48

compound COc1cc(NCC(C#N)C#N)ccc1N=Nc1ccc(Cl)cc1 , TGI observed: 51.6

compound COc1ccc2c(c1)C(=O)CCc1cc(OC)c(OC)c(OC)c1-2 , TGI observed: 87.1

compound COc1ccc2c(c1)C(=O)/C(=C/c1cccc(OCC(=O)c3ccccc3)c1)O2 , TGI observed: 13.8

====

Assignment: determine reported TGI for the given molecules.
Test system: K-562 leukemia
PROTOCOL_SUMMARY: NCI tumour cell line growth inhibition, 48 h

molecule O=C(Nc1ccc(C(F)(F)F)cc1[N+](=O)[O-])C(=O)C1NC(=S)NC1=O (configuration not stated) , TGI observed: > 100 µM

molecule CCCCCCCC(CC(=O)NC(CO)C(=O)NC(CO)CC(C)C)OC(=O)CC(CCCCCCC)OC(=O)CC(CCCCCCC)OC1OC(C)C(O)C(OC2OC(C)C(OC(C)=O)C(O)C2O)C1O (configuration not stated) , TGI observed: 34.3 µM

molecule C=C(C)[C@@H]1CC[C@]2(COCCCN)CC[C@]3(C)[C@H](CC[C@@H]4[C@@](C)(CCCNCCCN)[C@H](C(=C)C)CC[C@]43C)[C@@H]12 , TGI observed: 3.57 µM

molecule OCC12C=CC(C1)c1ccccc12 (configuration not stated) , TGI observed: > 100 µM

molecule COc1ccc(CC2COc3cc(OC)cc(OC)c3C2=O)cc1 (configuration not stated) , TGI observed: > 100 µM

molecule O=C(NC(=O)c1c(F)cccc1F)Nc1cccc(Oc2ncc(Cl)cn2)c1 , TGI observed: > 100 µM

molecule CSC(SC)(C(=O)O)c1cc(-c2c(Cl)cccc2Cl)no1 , TGI observed: > 100 µM

====

System: CAKI-1 renal
PROTOCOL_SUMMARY: NCI tumour cell line growth inhibition, 48 h
OBSERVABLE: TGI

compound CN(/N=C/c1ccc(C(=O)O)cc1)C1=NCCCCN1 , TGI observed: > 100 µM

compound C=CCCON(C(=O)OC(C)(C)C)c1ccccc1 , TGI observed: > 100 µM

compound Nc1ncc(-c2cnn(C3CCNCC3)c2)cc1-c1nc2cc(Cl)ccc2o1 , TGI observed: 3.09 µM

compound COc1cc(C2c3cc4c(cc3OC(C)(N3CCCC3)C2C)OCO4)cc(OC)c1OC (stereo not given) , TGI observed: > 20.2 µM

compound COC(=O)C1Cc2cc3c(cc2C1=O)CCC3 (stereo not given) , TGI observed: > 100 µM

compound O=C1OC(CCCN2CCCCC2)(c2ccccc2)CC12CCCC2 (stereo not given) , TGI observed: > 100 µM

compound Cc1ccc(S(=O)(=O)OC2CC=CC2)cc1 , TGI observed: > 100 µM

compound Cc1cn(C2CC(OC(=O)c3ccc(Cl)cc3)C(COC(=O)c3ccc(Cl)cc3)O2)c(=O)[nH]c1=O (stereo not given) , TGI observed: > 100 µM

compound CCOC(=O)[CH-]C(=O)C12CC3CC(CC(C3)C1)C2.CCOC(=O)[CH-]C(=O)C12CC3CC(CC(C3)C1)C2.CC[O-].CC[O-].[Ti+4] , TGI observed: > 100 µM

compound NC(CSC(c1ccccc1)(c1ccccc1)c1ccccc1)C(=O)NCC(=O)O (stereo not given) , TGI observed: > 100 µM
